# system: Shiga toxin 2 (Escherichia coli O157:H7) (UniProt P09385+P09386)
# protocol_notes: E. coli 0.157:H7 Shiga Toxin SOP - stx2 screening assay
# Assay type: functional
# Parameters: scale not given: direction of the effect not stated beside the values
# conditions: 30 µM
The entries below come with measured Percent Effect values attached.
Show the value, then the unit it is measured in.

- molecule: "Cc1nccnc1N1CCC2(CCCN(C3CCOCC3)C2=O)C1 (configuration not stated)"
  reading: "-27.2%"
- molecule: "CCN(C)c1ncnc2c1CCN(C(=O)c1ccno1)CC2"
  reading: "-5.46%"
- molecule: "CC(CNC(=O)Nc1cn[nH]c1)N1CCOCC1 (configuration not stated)"
  reading: "26.9%"
- molecule: "O=C(Nc1ccccc1)C1CN(CC2CC2)CC12CCOCC2 (configuration not stated)"
  reading: "-13.2%"
- molecule: "Nc1nc(C2CCN(C(=O)c3cncs3)CC2)cs1"
  reading: "-3.12%"

Record request: Percent Effect value, item O=C1NCCN1C1CCCN(Cc2nnc(-c3ccc(F)cc3)o2)C1 (configuration not stated)
-40.1%

Input COc1cc(C(C)=O)ccc1OCC(=O)N(C)Cc1cnn(C)c1
0.928%

Input CN(Cc1ccsc1)C(=O)Nc1ccc(S(C)(=O)=O)nc1
-35.6%

Input CCc1nc(CN2CCOC(Cn3nc(C)nc3C)C2)no1 (configuration not stated)
28.4%

Input CCN(CC)CCNc1ncc(-c2cc(C)no2)c(-c2ccoc2C)n1
7.04%

Input COc1ccc(Oc2cncc(C3CCCN3C(C)=O)n2)cc1 (configuration not stated)
-6.98%

Input O=C(N1CCCO1)[C@@]12CCO[C@@H]1CCN(C1CCCCC1)C2
-31.5%
